# study target: CRD1-3
# Sequence (chain, as listed by the source limits assumed): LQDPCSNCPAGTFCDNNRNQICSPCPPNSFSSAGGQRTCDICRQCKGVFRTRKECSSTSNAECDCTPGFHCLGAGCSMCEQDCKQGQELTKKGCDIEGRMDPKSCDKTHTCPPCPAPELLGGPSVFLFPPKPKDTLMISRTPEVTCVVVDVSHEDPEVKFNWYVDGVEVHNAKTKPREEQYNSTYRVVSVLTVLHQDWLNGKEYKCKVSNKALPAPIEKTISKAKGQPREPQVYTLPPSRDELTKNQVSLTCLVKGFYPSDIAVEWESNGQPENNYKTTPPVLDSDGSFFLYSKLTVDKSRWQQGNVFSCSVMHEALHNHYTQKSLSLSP
# experiment: ELISA, coated CD137-Fc protein 2 µg/mL, antibody 10 or 5 µg/mL; absorbance 620 nm divided by that of the uncoated well
Each record here notes measured Ratio with respect to Non-Coating.
Respond with the number and no other words.

R11 (antibody, V domains shown) VH: QVQLLESGGGLVQPGGSLRLSCAASGFTFSSYAMSWVRQAPGKGLEWVSAISGSGGSTYYADSVKGRFTISRDNSKNTLYLQMNSLRAEDTAVYYCARDKWYYYPALDYWGQGTLVTVSS VL: DIQMTQSPSSLSASVGDRVTITCRASQSISSYLNWYQQKPGKAPKLLIYAASSLQSGVPSRFSGSGSGTDFTLTISSLQPEDFATYYCQQFSRFPLTFGGGTKVEIK	1.2

// Ratio with respect to Non-Coating lookup, binder = R14 (antibody, V domains shown) VH: QVQLLESGGGLVQPGGSLRLSCAASGFTFSSYAMSWVRQAPGKGLEWVSAISGSGGSTYYADSVKGRFTISRDNSKNTLYLQMNSLRAEDTAVYYCARDKWYYYPALDYWGQGTLVTVSS VL: DIQMTQSPSSLSASVGDRVTITCRASQSISSYLNWYQQKPGKAPKLLIYAASSLQSGVPSRFSGSGSGTDFTLTISSLQPEDFATYYCLQVYRSPLTFGGGTKVEIK , result: 1.1
